# assay info: Pharmacokinetic profile in mice after oral gavage
# Type: in vivo, mouse
# cond: mouse; fasted male Hilltop mice, 10 mg/kg oral gavage, plasma; read-out: Cmax
metric: Cmax (ng/mL)

- compound: "N#Cc1ccc(CCNC(=O)[C@@H]2CCCN2c2cc(N3CCC(CCCC(=O)N[C@H](CC(=O)O)C(=O)O)CC3)nc(C(F)(F)F)n2)cc1 [Compound 75]"
  measured value: 22
- compound: "N#Cc1ccc(CCNC(=O)[C@@H]2CCCN2c2cc(N3CCC(CCN)CC3)nc(C(F)(F)F)n2)cc1 [Compound 50]"
  measured value: 214
- compound: "N#Cc1ccc(CCNC(=O)[C@@H]2CCCN2c2cc(N3CCC(CCCC(=O)NCCNC(=N)N)CC3)nc(C(F)(F)F)n2)cc1 [Compound 128]"
  measured value: 670

====

# experimental target: UniProt Q8TDU6
# Sequence (Q8TDU6 whole entry): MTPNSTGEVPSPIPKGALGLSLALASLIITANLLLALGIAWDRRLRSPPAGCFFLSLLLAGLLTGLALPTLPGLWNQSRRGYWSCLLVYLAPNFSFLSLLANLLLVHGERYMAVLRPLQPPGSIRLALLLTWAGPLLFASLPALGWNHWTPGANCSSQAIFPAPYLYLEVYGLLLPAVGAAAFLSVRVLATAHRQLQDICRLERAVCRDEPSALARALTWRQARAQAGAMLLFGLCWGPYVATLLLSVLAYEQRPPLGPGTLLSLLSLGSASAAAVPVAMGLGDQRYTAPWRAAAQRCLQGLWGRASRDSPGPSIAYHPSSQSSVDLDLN
# assay info: Human TGR5 cAMP production assay (hTGR5-CHO cells, DiscoveRx cAMP XS+ kit)
# cond: luminescent cAMP assay, read-out: Human TGR5 Lum. cAMP Activity (EC50)
pEC50: −log10 of the molar value.
metric: pEC50

- chemical smiles: "N=C(N)N1CCC(C2CCN(c3cc(N4CC[C@H]4C(=O)NCCc4ccc(C(F)(F)F)cc4)nc(C(F)(F)F)n3)CC2)CC1"
  measured value: "> 7.00"
- chemical smiles: "N#Cc1ccc(CCNC(=O)[C@@H]2CCN2c2cc(N3CCN(CCO)CC3)nc(C(F)(F)F)n2)cc1"
  measured value: "6.00 to 7.00"
- chemical smiles: "N#Cc1ccc(CCNC(=O)[C@@H]2CCCN2c2cc(N3CCC(COCC(=O)O)CC3)nc(C(F)(F)F)n2)cc1"
  measured value: "6.00 to 7.00"
- chemical smiles: "CN(C)CC(=O)N1CCN(c2cc(N3CCC[C@@H](C(=O)NCCc4ccc(C(F)(F)F)cc4)C3)nc(C(F)(F)F)n2)CC1"
  measured value: "6.00 to 7.00"
- chemical smiles: "CN(C)CCC1CCN(c2cc(N3CCC[C@H]3C(=O)NCCc3ccc(C(F)(F)F)cc3)nc(C(F)(F)F)n2)CC1"
  measured value: "> 7.00"
- chemical smiles: "N#Cc1ccc(CCNC(=O)[C@@H]2CCCN2c2cc(-c3ccc(OC(F)(F)F)cc3)nc(C(F)(F)F)n2)cc1"
  measured value: "6.00 to 7.00"
- chemical smiles: "N#Cc1ccc(CCNC(=O)[C@@H]2CCCN2c2cc(-c3ccc(C(=O)O)s3)nc(C(F)(F)F)n2)cc1"
  measured value: "6.00 to 7.00"
- chemical smiles: "N=C(N)NCCNC(=O)CCCC1CCN(c2cc(N3CCC[C@H]3C(=O)NCCc3ccc(C(F)(F)F)cc3)nc(C(F)(F)F)n2)CC1"
  measured value: "> 7.00"

====

# experimental target: UniProtKB Q8TDU6
# assay info: Human TGR5 cAMP production assay (hTGR5-CHO cells, DiscoveRx cAMP XS+ kit)
# cond: luminescent cAMP assay, read-out: Human TGR5 Lum. cAMP Activity (EC50)

- chemical smiles: "N#Cc1ccc(CCNC(=O)[C@@H]2CCCN2c2cc(NCCS(=O)(=O)O)nc(C(F)(F)F)n2)cc1"
  EC50: "1000 to 30000 nM"
- chemical smiles: "N#Cc1ccc(CCNC(=O)[C@@H]2CCCN2c2cc(N3CCC(CCCO)CC3)nc(C(F)(F)F)n2)cc1"
  EC50: "< 100 nM"
- chemical smiles: "COc1cc(C(F)(F)F)ccc1CCNC(=O)[C@@H]1CCN1c1cc(N2CCC(CO)CC2)nc(C(F)(F)F)n1"
  EC50: "< 100 nM"
- chemical smiles: "CC(C)(C)OC(=O)NCCC1CCN(c2cc(N3CCC[C@H]3C(=O)NCCc3ccc(C#N)cc3)nc(C(F)(F)F)n2)CC1"
  EC50: "100 to 999 nM"
